Examples of compounds with documented pKi follow.
Test: Tested for activity against 5-hydroxytryptamine 1A receptor from bovine hippocampus
Field pKi (float): negative decimal logarithm of the concentration in molar.

Below: 3 compounds and their reported pKi.
INSERT INTO assay_data (compound_structure_string, readout_value) VALUES
  ('CCCN1CC[C@H]2c3c(cccc3OC)CC[C@@H]21', 9.70),
  ('COc1cccc2c1C[C@H]1CCN(Cc3ccccc3)[C@H]1C2', 6.00),
  ('COc1cccc2c1CC[C@@H]1[C@H]2CCN1CC1CC1', 6.00);

Sample CCCN1[C@H](C)C[C@H]2c3c(O)cccc3CC[C@H]21 — what was its pKi?
7.80

Also COc1cccc2c1C[C@H]1CCN[C@H]1C2 ?
6.00

Where do the numbers come from? From BindingDB's records for doi:10.1021/jm00008a008.
